Reported melting point values are given for each entry in this list.

Record excerpt, results attached:
- compound: "C[C@H](NC(=O)[C@@](C)(Cc1c[nH]c2ccccc12)NCc1ccc[nH]1)c1ccccc1 (relative stereo)"
  melting point: "123 to 133 °C"
- compound: "C[C@](Cc1c[nH]c2ccccc12)(NCc1cc2ccccc2o1)C(=O)NCc1cccc(O)c1"
  melting point: "60 to 69 °C"
- compound: "CC(NC(=O)[C@@](C)(Cc1c[nH]c2ccccc12)NCc1cc2ccccc2o1)c1ccn(C)c1 (stereo in doubt)"
  melting point: "53 to 57 °C"

Lookup: Data request, read-out melting point, for C[C@H](NC(=O)[C@@](C)(Cc1c[nH]c2ccccc12)NCc1cc2ccccc2o1)c1ccccc1 (relative stereo)
Found: 118 to 121 °C

* * *

Molecular target: Human NK1 Receptor (Homo sapiens)
Construct: endogenous in cells; host or cells: Human lymphoma IM9 cells (whole cells)
Sequence (P25103 whole entry): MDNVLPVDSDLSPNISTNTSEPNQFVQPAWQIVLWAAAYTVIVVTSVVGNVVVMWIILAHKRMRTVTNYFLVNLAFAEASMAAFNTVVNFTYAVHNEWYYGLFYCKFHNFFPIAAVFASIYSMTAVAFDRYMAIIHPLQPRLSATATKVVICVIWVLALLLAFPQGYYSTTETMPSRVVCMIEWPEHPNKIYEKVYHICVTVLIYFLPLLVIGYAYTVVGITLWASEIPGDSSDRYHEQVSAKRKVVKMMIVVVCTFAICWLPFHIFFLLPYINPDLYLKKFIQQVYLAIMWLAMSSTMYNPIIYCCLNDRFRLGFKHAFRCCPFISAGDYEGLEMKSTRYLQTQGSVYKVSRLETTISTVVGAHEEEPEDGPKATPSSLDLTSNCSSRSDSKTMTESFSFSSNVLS
Experiment: In Vitro Human NK1 Receptor Binding Assay ([125I]Bolton-Hunter substance P displacement, IM9 cells)
Conditions: Human lymphoma IM9 cells, [125I]Bolton-Hunter substance P (0.05-0.1 nM), 50 min at 21° C.; Table 1; read-out: NK1 binding IC50
pIC50: −log10 of the molar value.
metric: pIC50

- molecule: "C[C@H](NC(=O)[C@@](C)(Cc1c[nH]c2ccccc12)NC(=O)NCc1cc2ccccc2o1)c1ccccc1 (relative stereo)"
  pIC50: 8.54

[I] C[C@H](NC(=O)[C@@H](Cc1c[nH]c2ccccc12)NCCc1cc2ccccc2o1)c1ccccc1 (relative stereo)
[II] C[C@H](NC(=O)[C@@H](Cc1c[nH]c2ccccc12)NCc1cc2ccccc2o1)c1ccccc1 (relative stereo)
Lookup: // task: argmin of pIC50 over [ I , II ] State your choice using its label.
Found: I
(I: 8.48, II: 9.15)

* * *

Biological target: Human NK1 Receptor (Homo sapiens)
Construct: endogenous in cells; host or cells: Human lymphoma IM9 cells (whole cells)
Experiment: In Vitro Human NK1 Receptor Binding Assay ([125I]Bolton-Hunter substance P displacement, IM9 cells)
Conditions: human NK1 receptor, IM9 cells, [125I]Bolton-Hunter substance P; read-out: IC50 (nM) hNK1
metric: IC50 (nM)

- molecule: "CC(NC(=O)C(C)(Cc1c[nH]c2ccccc12)NCc1cc2ccccc2o1)c1ccc([N+](=O)[O-])cc1 (stereo not shown) [compound 124]"
  IC50 / nM: 92
- molecule: "CC(Cc1c[nH]c2ccccc12)(NCc1cc2ccccc2o1)C(=O)NCc1cnc2ccccc2c1 (stereo not shown)"
  IC50 / nM: 1210
- molecule: "CC(Cc1c[nH]c2ccccc12)(NCc1cc2ccccc2o1)C(=O)NCCC1CCCCC1 (stereo not shown)"
  IC50 / nM: 216
- molecule: "CC(Cc1c[nH]c2ccccc12)(NCc1cc2ccccc2o1)C(=O)NC1CCc2ccccc21 (stereo not shown) [compound 130]"
  IC50 / nM: 163
- molecule: "CC(Cc1c[nH]c2ccccc12)(NCc1cc2ccccc2o1)C(=O)NCc1ccc(N)c2ccccc12 (stereo not shown)"
  IC50 / nM: 2340
- molecule: "CC(Cc1c[nH]c2ccccc12)(NCc1cc2ccccc2o1)C(=O)NCc1ccccc1Br (stereo not shown)"
  IC50 / nM: 700

[P] CCC(NC(=O)C(C)(Cc1c[nH]c2ccccc12)NCc1cc2ccccc2o1)c1ccccc1 (stereo not shown) [compound 63]
[Q] CC(NC(=O)C(C)(Cc1c[nH]c2ccccc12)NCc1cc2ccccc2o1)c1ccc([N+](=O)[O-])cc1 (stereo not shown) [compound 34]
[R] CC(NC(=O)C(C)(Cc1c[nH]c2ccccc12)NCc1cc2ccccc2o1)c1cccnc1 (stereo not shown)
Lookup: Put the entries in order of IC50, starting with the largest number. Write out the labels following the order that was asked for.
Found: R, P, Q

[A] CC(Cc1c[nH]c2ccccc12)(NCc1cc2ccccc2o1)C(=O)NCc1cccc(Cl)c1 (stereo not shown)
[B] CC(NC(=O)C(C)(Cc1c[nH]c2ccccc12)NCc1cc2ccccc2o1)C1=CCCO1 (stereo not shown)
Lookup: Please choose the item with the lower IC50 value from this pair: A and B Refer to your chosen item by its label in the answer.
Found: A
(A: 17 nM, B: 3590 nM)

[1] CC(Cc1c[nH]c2ccccc12)(NCc1cc2ccccc2o1)C(=O)NCc1cc(F)ccc1F (stereo not shown)
[2] CC(NC(=O)C(C)(Cc1c[nH]c2ccccc12)NCc1cc2ccccc2o1)c1cccc(N(C)C)c1 (stereo not shown)
Lookup: Field: lower IC50 | Options: 1 / 2 Reply with the label of the item you choose.
Found: 1
